Catalogue of pIC50 readings, one per entry.
# System: HCT116 cells
# Test Name: Cell viability assay (CellTiter-Glo, 72 hours) in HCT116 human colorectal cancer cells
# Assay type: cell-based
# Conditions Used: Homo sapiens, HCT-116; Table 9; HCT116, 72 hours; read-out: Activity
pIC50: −log10 of the molar value.

Below, each entry is followed by its recorded pIC50 result.
CC#CCN1C(=O)c2ccccc2C(C#N)c2cc(NC(=O)c3ccc(OC)cc3)ccc21 (centres unmarked) [Table 9: —CH2CCMe; 4-MeOPh; CHCN]	> 6.30
CC#CCN1C(=O)c2ccccc2C(C)c2cc(NC(=O)c3ccc(OC)cc3)ccc21 (centres unmarked) [Table 9: —CH2CCMe; 4-MeOPh; CHMe]	> 6.30
COc1ccc(C(=O)Nc2ccc3c(c2)Cc2ccccc2C(=O)N3CC#CC(F)(F)F)cc1 [Table 9: —CH2CCCF3; 4-MeOPh; CH2]	> 6.30
CC#CCN1C(=O)c2ccccc2C(C)(O)c2cc(NC(=O)c3ccc(OC)cc3)ccc21 (centres unmarked) [Table 9: —CH2CCMe; 4-MeOPh; CMeOH]	> 6.30

Query: // returns reported pIC50 for input CC#CCN1C(=O)c2ccccc2C(C)c2cc(NC(=O)c3ccc4oc(=O)n(C)c4c3)ccc21 (centres unmarked)
Response: > 6.30
